Please provide measured MIC for the entries that follow.
test system: Haemophilus influenzae C.L.; experiment: agar-dilution MIC; type: cell-based; details: ampicillin-sensitive strain
# number only, unit µg/mL dropped from output

The value of MIC recorded for CCCC(=O)OC1C(C)OC(OC2C(C)OC(OC3C(CC=O)CC(C)C(=O)C=CC(C)=CC(COC4OC(C)C(O)C(O)C4OC)C(CC)OC(=O)CC(OC(C)=O)C3C)C(O)C2N(C)C)CC1(C)O (stereo not shown) when tested on Haemophilus influenzae C.L. reads 32

The value of MIC recorded for CCC1OC(=O)CC(OC(C)=O)C(C)C(OC2OC(C)C(O)C(N(C)C)C2O)C(CC=O)CC(C)C(=O)C=CC(C)=CC1COC1OC(C)C(O)C(O)C1OC (stereo not shown) when tested on Haemophilus influenzae C.L. reads 16

The value of MIC recorded for CCC1OC(=O)CC(OC(C)=O)C(C)C(OC2OC(C)C(OC3CC(C)(O)C(O)C(C)O3)C(N(C)C)C2O)C(CC=O)CC(C)C(=O)C=CC(C)=CC1COC1OC(C)C(O)C(O)C1OC (stereo not shown) when tested on Haemophilus influenzae C.L. reads 32

The value of MIC recorded for CCC1OC(=O)CC(OC(C)=O)C(C)C(OC2OC(C)C(OC3CC(C)(O)C(OC(=O)CC(C)C)C(C)O3)C(N(C)C)C2O)C(CC=O)CC(C)C(=O)C=CC(C)=CC1COC1OC(C)C(O)C(O)C1OC (stereo not shown) when tested on Haemophilus influenzae C.L. reads 32

* * *

Please provide measured MIC for the entries that follow.
# number only, unit µg/mL dropped from output

The value of MIC recorded for CCCC(=O)OC1C(C)OC(OC2C(C)OC(OC3C(CC=O)CC(C)C(=O)C=CC(C)=CC(COC4OC(C)C(O)C(O)C4OC)C(CC)OC(=O)CC(OC(C)=O)C3C)C(O)C2N(C)C)CC1(C)O (stereo not shown) when tested on Streptococcus sp. 80 reads 0.39

The value of MIC recorded for CCC1OC(=O)CC(OC(C)=O)C(C)C(OC2OC(C)C(OC3CC(C)(O)C(O)C(C)O3)C(N(C)C)C2O)C(CC=O)CC(C)C(=O)C=CC(C)=CC1COC1OC(C)C(O)C(O)C1OC (stereo not shown) when tested on Streptococcus sp. 80 reads 1.56

The value of MIC recorded for CCC1OC(=O)CC(OC(C)=O)C(C)C(OC2OC(C)C(OC3CC(C)(O)C(OC(=O)CC(C)C)C(C)O3)C(N(C)C)C2O)C(CC=O)CC(C)C(=O)C=CC(C)=CC1COC1OC(C)C(O)C(O)C1OC (stereo not shown) when tested on Streptococcus sp. 80 reads 0.39

The value of MIC recorded for CCC1OC(=O)CC(OC(C)=O)C(C)C(OC2OC(C)C(O)C(N(C)C)C2O)C(CC=O)CC(C)C(=O)C=CC(C)=CC1COC1OC(C)C(O)C(O)C1OC (stereo not shown) when tested on Streptococcus sp. 80 reads 1.56

* * *

system: Staphylococcus epidermidis EPI1; assay: agar-dilution MIC; assay type: cell-based
readout-type: MIC (µg/mL)
# number only, unit µg/mL dropped from output

Query CCC1OC(=O)CC(OC(C)=O)C(C)C(OC2OC(C)C(O)C(N(C)C)C2O)C(CC=O)CC(C)C(=O)C=CC(C)=CC1COC1OC(C)C(O)C(O)C1OC (stereo not shown) [3-Acetyl-lactenocin, 3-O-Acetyllactenocin] yields MIC of 1

Query CCC1OC(=O)CC(OC(C)=O)C(C)C(OC2OC(C)C(OC3CC(C)(O)C(O)C(C)O3)C(N(C)C)C2O)C(CC=O)CC(C)C(=O)C=CC(C)=CC1COC1OC(C)C(O)C(O)C1OC (stereo not shown) [3-Acetyl-macrocin, 3-O-Acetylmacrocin] yields MIC of 0.5

Query CCC1OC(=O)CC(OC(C)=O)C(C)C(OC2OC(C)C(OC3CC(C)(O)C(OC(=O)CC(C)C)C(C)O3)C(N(C)C)C2O)C(CC=O)CC(C)C(=O)C=CC(C)=CC1COC1OC(C)C(O)C(O)C1OC (stereo not shown) [3-Acetyl-4"-Isovaleryl-macrocin, 3-O-acetyl-4"-O-isovalerylmacrocin] yields MIC of 0.5

Query CCCC(=O)OC1C(C)OC(OC2C(C)OC(OC3C(CC=O)CC(C)C(=O)C=CC(C)=CC(COC4OC(C)C(O)C(O)C4OC)C(CC)OC(=O)CC(OC(C)=O)C3C)C(O)C2N(C)C)CC1(C)O (stereo not shown) [3-Acetyl-4"-(n-Butyryl)-macrocin, 3-O-Acetyl-4"-O-(n-Butyryl)macrocin] yields MIC of 1

The reported numbers originate from patent US4656258A.
